B1: glmS ribozyme (parent)
chain: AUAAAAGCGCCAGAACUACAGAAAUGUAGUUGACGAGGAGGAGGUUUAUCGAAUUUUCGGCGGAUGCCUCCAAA

Variants of: B1
Protocol Text: self-cleavage kobs at 10000 uM GlcN6P; higher = faster cleavage; RNA array
Run Conditions: with glucosamine-6-phosphate
Fewer inactive variants are shown than the library holds.
Endpoint: self-cleavage kobs at 10000 uM GlcN6P

Observe how each entry below is paired with its result.
{"Mutation Label": "C11U A42C U55C C70U", "Obs Value": "< 1e-05 s⁻¹"}
{"Mutation Label": "G29A C34A G40U G41C G44U U49G C50A C71U", "Obs Value": "< 1e-05 s⁻¹"}
{"Mutation Label": "G13A A36G", "Obs Value": "< 1e-05 s⁻¹"}
{"Mutation Label": "C34G A64U", "Obs Value": "< 1e-05 s⁻¹"}

Exam item: Find the recorded self-cleavage kobs at 10000 uM GlcN6P belonging to A6C U31C G41C A42G U45G G59C G66U and report it.
Marked response: < 1e-05 s⁻¹

Exam item: Find the recorded self-cleavage kobs at 10000 uM GlcN6P belonging to A6C C61U and report it.
Marked response: < 1e-05 s⁻¹

Exam item: Find the recorded self-cleavage kobs at 10000 uM GlcN6P belonging to C16U C71A and report it.
Marked response: 0.00173 s⁻¹

Exam item: Find the recorded self-cleavage kobs at 10000 uM GlcN6P belonging to G9U U45C and report it.
Marked response: < 1e-05 s⁻¹

Exam item: Find the recorded self-cleavage kobs at 10000 uM GlcN6P belonging to A12G A15C and report it.
Marked response: 0.000205 s⁻¹

Exam item: Find the recorded self-cleavage kobs at 10000 uM GlcN6P belonging to C8A A15U U47C U69A and report it.
Marked response: < 1e-05 s⁻¹
